Sourced from patent US11814447B2

Target: T1, Human EphA2 (Ecto), C-terminal polyHis (Human, UniProt P29317 24-537)
T1 construct: extracellular domain; also called EPH receptor A2; ephrin type-A receptor 2
T1 sequence (P29317 24-537): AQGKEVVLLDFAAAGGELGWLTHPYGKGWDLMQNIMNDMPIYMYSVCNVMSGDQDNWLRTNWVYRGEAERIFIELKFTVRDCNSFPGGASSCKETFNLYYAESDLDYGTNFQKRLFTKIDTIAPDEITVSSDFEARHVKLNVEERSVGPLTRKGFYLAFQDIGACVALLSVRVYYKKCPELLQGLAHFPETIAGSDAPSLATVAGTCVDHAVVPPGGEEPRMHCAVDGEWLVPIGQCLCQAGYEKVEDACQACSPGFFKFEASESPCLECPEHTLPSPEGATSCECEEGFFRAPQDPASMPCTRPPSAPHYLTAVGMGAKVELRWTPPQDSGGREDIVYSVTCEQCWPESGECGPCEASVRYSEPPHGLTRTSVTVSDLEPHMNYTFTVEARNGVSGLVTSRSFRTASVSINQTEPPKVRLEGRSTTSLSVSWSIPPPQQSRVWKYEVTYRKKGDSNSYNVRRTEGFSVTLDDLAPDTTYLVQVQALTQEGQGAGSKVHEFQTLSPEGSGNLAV
Assay: fluorescence polarisation competition; competitor fluorescent Compound 18
Experimental: Peptides without a fluorescent tag were tested in competition with a peptide with a fluorescent tag and a known Kd (Table 2). Peptides were diluted to an appropriate concentration in assay buffer as described in the direct binding assay with a maximum of 5% DMSO, then serially diluted 1 in 2. […] Measurements were conducted as for the direct binding assay, however the gain was determined prior to the first measurement. […]
Starred links: 1 amine or outer side, 2 acyl side, 3 side chain; linkers in the order of their positions; H or OH if unused. Positions of bridges follow the written chain, without caps; N, C: chain ends. Non-standard residues stand in square brackets, D forms with d. No end group written: not given here. 1Nal = N[C@@H](Cc1cccc2ccccc12)C(=O)O; TBMB = c1c(C[*:1])cc(C[*:3])cc1C[*:2]; hArg = N=C(N)NCCCC[C@H](N)C(=O)O; Tle = CC(C)(C)[C@H](N)C(=O)O; Aib = CC(C)(N)C(=O)O; Sar = CNCC(=O)O
ENDPOINT: log10 of Ki (log10 of the value in µM)
All values: base-10 log of Ki in µM.

Examples with answers:
>  <BINDER>
ADVHCPWGPFWCPVNRPGCA (linker 5-12-19 via TBMB (inferred), also called Compound 57) [Bicycle Compound Number 57 (TBMB scaffold)]

>  <READING>
-3.32

$$$$
>  <BINDER>
[Sar][Sar]AC[Aib][1Nal]GPFWCPV[dA]RPGC (linker 4-11-18 via TBMB, also called Sar2-AC(Aib)(1Nal)GPFWCPV(D-Ala)RPGC) [Bicycle Compound Number 124 (TBMB scaffold)]

>  <READING>
-1.59

$$$$
>  <BINDER>
[Sar][Sar]ACPWG[Aib]F[1Nal]CPVNRPGC (linker 4-11-18 via TBMB) [Bicycle Compound Number 123 (TBMB scaffold)]

>  <READING>
-1.20

$$$$

Problem: Respond only with log10 of Ki recorded for [Sar][Sar]ACP[1Nal]GPFWCPV[dA][hArg]PGC (linker 4-11-18 via TBMB, also called Sar2-ACP(1Nal)GPFWCPV(D-Ala)(HArg)PGC) [Bicycle Compound Number 133 (TBMB scaffold)]
Solution: -1.85

Problem: Respond only with log10 of Ki recorded for [Sar][Sar]ACP[1Nal]GPFWCP[Tle]NRPGC (linker 4-11-18 via TBMB, also called Sar2-ACP(1Nal)GPFWCP(tBuGly)NRPGC) [Bicycle Compound Number 121 (TBMB scaffold)]
Solution: -2.44
